STUDY SYSTEM: varicella zoster virus DNA polymerase (Varicella-zoster virus (strain Dumas) (HHV-3) (Human herpesvirus 3))
ASSAY COMMENT: VZV polymerase assay (AlphaLISA)
MEASUREMENT CONDITIONS: VZV polymerase 0.4 nM, 30 min pre-incubation, 60 minute at 37° C.
pIC50: −log10 of the molar value.
pIC50 vs 8: at or above is Met, below is Not met.

> print(dat)
                            substance.smiles  label.value
 1  N#Cc1cc2ncn(Cc3ccc(Cl)cc3)c(=O)c2cc1O[C@H]1CCN2C(=O)OC[C@@H]2C1          Met
 2  Cc1nc2cc(-c3cn[nH]c3)c(O[C@H]3CCN4C(=O)OC[C@@H]4C3)cc2c(=O)n1Cc1ccc(Cl)cc1          Met
 3  CC(C)(O)Cc1nc2ncn(Cc3ccc(Cl)cc3)c(=O)c2cc1O[C@H]1CCN2C(=O)OC[C@@H]2C1      Not met
 4  COc1ncc(-c2cc3nc(C)n(Cc4ccc(C#N)cc4)c(=O)c3cc2O[C@H]2CCN3C(=O)OC[C@@H]3C2)cn1      Not met
 5  Cc1nc2cc(-c3cn4c(n3)CN(C)CC4)c(O[C@H]3CCN4C(=O)OC[C@@H]4C3)cc2c(=O)n1Cc1ccc(Cl)cc1          Met
 6  Cc1nc2cc(CC(C)(C)O)c(O[C@H]3CCN4C(=O)OC[C@@H]4C3)cc2c(=O)n1Cc1ccc(Cl)cc1          Met
 7  Cc1cc2ccn(Cc3ccc(Cl)cc3)c(=O)c2cc1O[C@H]1CCN2C(=O)OC[C@@H]2C1      Not met
 8  Cc1nc2cc(-c3cccnc3)c(O[C@H]3CCN4C(=O)OC[C@@H]4C3)cc2c(=O)n1Cc1ccc(Cl)cc1      Not met
 9  C[C@@H]1CN(C2CCOCC2)CCN1c1ccc2ncn(Cc3ccc(Cl)cc3)c(=O)c2c1      Not met
10  Cc1nc2cc(-c3cc4n(n3)CCN(C)C4)c(O[C@H]3CCN4C(=O)OC[C@@H]4C3)cc2c(=O)n1Cc1ccc(Cl)cc1          Met
11  Cc1nc2cc(-c3cnn(C(F)F)c3)c(O[C@H]3CCN4C(=O)OC[C@@H]4C3)cc2c(=O)n1Cc1ccc(C#N)cc1          Met
12  COc1nc2ccn(Cc3ccc(Cl)cc3)c(=O)c2cc1O[C@H]1CCN2C(=O)OC[C@@H]2C1      Not met
13  O=C1OC[C@@H]2C[C@@H](Oc3cc4c(=O)n(Cc5ccc(Cl)cc5)cnc4nc3-c3cnn(C(F)F)c3)CCN12          Met
14  CCc1nc2cc(-c3cnco3)c(O[C@H]3CCN4C(=O)OC[C@@H]4C3)cc2c(=O)n1Cc1ccc(C#N)cc1          Met
15  Cc1nc2cc(-c3cc4n(n3)CCNC4)c(O[C@H]3CCN4C(=O)OC[C@@H]4C3)cc2c(=O)n1Cc1ccc(Cl)cc1          Met
